Molecular target: HNF4alpha2 (COS-7 nuclear extract) (Homo sapiens, UniProt P41235 1-474)
Sequence: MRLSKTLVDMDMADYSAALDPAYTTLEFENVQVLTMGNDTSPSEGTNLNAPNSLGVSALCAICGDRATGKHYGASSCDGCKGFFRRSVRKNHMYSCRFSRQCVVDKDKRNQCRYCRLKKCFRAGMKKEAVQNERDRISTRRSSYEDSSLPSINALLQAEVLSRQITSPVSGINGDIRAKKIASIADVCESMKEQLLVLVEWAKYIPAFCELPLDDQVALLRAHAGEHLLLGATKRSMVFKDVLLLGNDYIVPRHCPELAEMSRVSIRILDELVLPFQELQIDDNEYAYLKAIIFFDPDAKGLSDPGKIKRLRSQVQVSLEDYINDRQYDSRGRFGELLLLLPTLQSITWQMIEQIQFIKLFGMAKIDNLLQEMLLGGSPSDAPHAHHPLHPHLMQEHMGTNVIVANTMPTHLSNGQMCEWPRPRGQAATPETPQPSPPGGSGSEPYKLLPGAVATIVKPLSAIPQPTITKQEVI
Test: protein-binding microarray; COS-7 nuclear extract on double-stranded Agilent 4x180k PBM; binding buffer, salt, pH and temperature not given in the material; high values mean tight binding
Conditions: chain copies: 2; label: 3' end of strand 1 on the slide; dsDNA, one strand shown
The full ranking holds about 18,000 sequences; the median of “log2 normalized intensity” is about 0.39, and the highest 2% start at about 6.6. The entries come from a sample that favours the highest values as a whole.
Give measured binding signal for each item. Keep answers brief.
Answers are plain numbers, in log2 normalized intensity.

Known results for sequences:
SEQUENCE: ATTAACTAACCTTTGAACCAGATGGCCCTCGCCTAGGGAGATTAGAGTATCGGTCGA
RECORDED VALUE: 3.62

SEQUENCE: TTCCCTTGTTTACCTTGGTGTTTCTTTGATGCCTAGGGAGATTAGAGTATCGGTCGA
RECORDED VALUE: 1.68

SEQUENCE: CACCTTTTTTGGCCTTTACCCCTTGAGTTTGCCTAGGGAGATTAGAGTATCGGTCGA
RECORDED VALUE: 3.93

Quick request: binding signal for each listed item, please.
1. AATCCCCTTCAAGTCTGAGATGAAGAGGCCGCCTAGGGAGATTAGAGTATCGGTCGA
2. AAGGCTTTGAAGTCTGGTGGCAAGTACCCTGCCTAGGGAGATTAGAGTATCGGTCGA
3. CAAGGGTCAGTTCATTAAAAAAAAAAAAAAGCCTAGGGAGATTAGAGTATCGGTCGA
4. CCCCATGATGATAGCAAACACGATTGGATGGCCTAGGGAGATTAGAGTATCGGTCGA

1. 0.649
2. -0.842
3. 1.19
4. 0.412

Quick request: binding signal for each listed item, please.
1. AAAGGGGAAAAGGTCAAATACCAAAATGTGGCCTAGGGAGATTAGAGTATCGGTCGA
2. CTGGCAAAGCCATGAAGCAATTCTGAGCCCGCCTAGGGAGATTAGAGTATCGGTCGA
3. GAGGACTTTGGCCTTTTGTGAGATATGGACGCCTAGGGAGATTAGAGTATCGGTCGA
4. GATGTTCGTTTGGATCGCTTGGCTCAGGCCGCCTAGGGAGATTAGAGTATCGGTCGA

1: 1.8; 2: -0.972; 3: 3.45; 4: -0.819

Quick request: binding signal for each listed item, please.
1. TCTATCTGTATTCTGAAGCCCTACAGCCCAGCCTAGGGAGATTAGAGTATCGGTCGA
2. TGGGGTATCAGGTGGTGATGGTGGGAGGGAGCCTAGGGAGATTAGAGTATCGGTCGA
3. ACGTGGCAATCATTCTGTCTGCCTTCAGGCGCCTAGGGAGATTAGAGTATCGGTCGA
4. GGCATGGGAAGCAGTGAGGGTGGGTTCAAAGCCTAGGGAGATTAGAGTATCGGTCGA
5. TTTGGTGAGGCCCCAGTGTCAATTCTCATTGCCTAGGGAGATTAGAGTATCGGTCGA

1. -0.864
2. 0.113
3. -0.947
4. 0.803
5. 1.82
